TESTED_TARGET: human kisspeptin receptor (Homo sapiens (Human), UniProt Q969F8)
Sequence (Q969F8 whole entry): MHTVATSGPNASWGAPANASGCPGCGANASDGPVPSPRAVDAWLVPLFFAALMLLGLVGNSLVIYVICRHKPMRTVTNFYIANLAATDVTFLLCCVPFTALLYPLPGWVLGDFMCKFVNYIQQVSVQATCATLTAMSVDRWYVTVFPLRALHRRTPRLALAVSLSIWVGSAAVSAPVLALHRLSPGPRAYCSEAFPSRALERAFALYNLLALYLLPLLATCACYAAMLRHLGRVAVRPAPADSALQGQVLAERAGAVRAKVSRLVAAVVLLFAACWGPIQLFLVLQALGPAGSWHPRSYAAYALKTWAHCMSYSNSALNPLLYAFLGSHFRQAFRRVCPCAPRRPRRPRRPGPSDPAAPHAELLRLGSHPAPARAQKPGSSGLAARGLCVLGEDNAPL
ASSAY_DETAILS: Human KISS1R binding assay (membrane competition binding)
CONDITION_NOTES: 90 min at room temperature; competition with 0.2 nM [125I]-metastin (45-54); Flp-In T-Rex 293 kisspeptin membranes; metal complexes nonradioactive Ga, In, Lu; read-out: hKiSSR Binding Ki (90 min)
pKi: −log10 of the molar value. Square brackets hold non-standard residues; d marks the D form. Peptide text beside a SMILES is read from it. * marks the point of attachment. DOTA = O=C(O)CN1CCN(CC(=O)O)CCN(CC(=O)*)CCN(CC(=O)O)CC1; Gly(N-(3-F-4-Me-benzyl)) = Cc1ccc(CNCC(=O)*)cc1F; Butanoyl(4-(4-MePh)) = Cc1ccc(CCCC(=O)*)cc1; Api(1-amidino) = N=C(N)N1CCC(N)(C(=O)O)CC1; d4Pal = N[C@H](Cc1ccncc1)C(=O)O; Lauroyl = CCCCCCCCCCCC(=O)*; Api = NC1(C(=O)O)CCNCC1; Ahx = NCCCCCC(=O)O; azaGly = NNC(=O)O
PROPERTY_LABEL: pKi

Data request: // lookup pKi for CCCCCCCCCCCC(=O)N[C@H](Cc1ccc(O)cc1)C(=O)N[C@@H](CCCCNC(=O)CN1CCN(CC(=O)O)CCN(CC(=O)O)CCN(CC(=O)O)CC1)C(=O)N[C@@H](CC(N)=O)C(=O)N[C@H](C(=O)N[C@@H](Cc1ccccc1)C(=O)NNC(=O)N[C@@H](CC(C)C)C(=O)NC1(C(=O)N[C@@H](Cc2ccc(O)cc2)C(N)=O)CCN(C(=N)N)CC1)[C@@H](C)O [Compound 331] (Lauroyl-[dY]K(DOTA)NTF[azaGly]L[Api(1-amidino)]Y-NH2)
Data returned: > 8.00

Data request: Follow-up item: Cc1ccc(CNCC(=O)N2CCC(NC(=O)[C@H](CC(C)C)NC(=O)NNC(=O)[C@H](Cc3ccccc3)NC(=O)[C@@H](NC(=O)[C@H](CC(N)=O)NC(=O)[C@@H](Cc3ccncc3)NC(=O)[C@@H](Cc3ccc(O)cc3)NC(=O)CNC(=O)CN3CCN(CC(=O)O)CCN(CC(=O)O)CCN(CC(=O)O)CC3)[C@@H](C)O)(C(=O)N[C@@H](Cc3ccc(O)cc3)C(N)=O)CC2)cc1F [Compound 193] ({DOTA}-G[dY][d4Pal]NTF[azaGly]L[Api](Gly(N-(3-F-4-Me-benzyl)))Y-NH2)
Data returned: > 8.00

Data request: Now the molecule Cc1ccc(CCCC(=O)N2CCC(NC(=O)[C@H](CC(C)C)NC(=O)NNC(=O)[C@H](Cc3ccccc3)NC(=O)CCCCCNC(=O)CN3CCN(CC(=O)O)CCN(CC(=O)O)CCN(CC(=O)O)CC3)(C(=O)N[C@@H](Cc3c[nH]c4ccccc34)C(N)=O)CC2)cc1 [Compound 7] ({DOTA-Ahx}-F[azaGly]L[Api](Butanoyl(4-(4-MePh)))W-NH2)
Data returned: 7.00 to 8.00
